molecular target: HLA-A*30:02; experiment: IEDB peptide-MHC binding, purified MHC/competitive/radioactivity; filed as Kd, often an IC50 or EC50 that approximates it; bounds were set here for any values at or beyond the usual limits of such assays; settings: source organism: Dengue virus 3 Martinique/1243/1999
pKd: −log10 of the molar value.
observable: pKd

Please look up its pKd: `IWLKLREVY`
≤ 4.11

Query: pKd; subject: `GCGRGGWSYY`
8.03

The record that follows has no pKd shown yet.
# lookup: pKd of `CNLTSTWVTY`
≤ 4.16

====

molecular target: HLA-A*11:01; test: IEDB peptide-MHC binding, purified MHC/direct/fluorescence; filed as Kd, often an IC50 or EC50 that approximates it; bounds were set here for any values at or beyond the usual limits of such assays; conditions: source organism: Pseudomonas aeruginosa
observable: Kd (µM)
State the answer as a number, implicitly in µM.

What value of Kd has been reported for the following sequence? `RSFAERLDR`
0.117
